self-cleavage overview
B1: CPEB3 Ribozyme (parent)
chain: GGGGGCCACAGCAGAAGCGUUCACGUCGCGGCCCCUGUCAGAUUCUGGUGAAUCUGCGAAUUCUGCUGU

variants of: B1; experiment: self-cleavage, relative activity (ratio to wild type); higher = more cleavage; co-transcriptional
// no unit, no text: just the number

Recorded results for 5 variants are shown here.
{"mutationCode": "C7A A8C", "self-cleavage": 0.769}
{"mutationCode": "G31A A59G", "self-cleavage": 0.811}
{"mutationCode": "A10C C66A", "self-cleavage": 0.862}
{"mutationCode": "G1A A16C", "self-cleavage": 0.028}
{"mutationCode": "C6U G11A", "self-cleavage": 0.861}

What value of self-cleavage has been recorded for this entry: A42G U64C
0.678

And for G25U U62A ?
0.158

Similarly, G5C A59U ?
0.14

Subsequent entry: C24A C27U
0.168

Next variant: C34A A60C
0.313

For G31C U62A then?
0.151

Same question for G48A G58U please.
0.987

Again, but for G3U C45A
0.105

And the next one, G28A G30A ?
0.156

Next record, please: U46G A59C
0.828

# repeat for G4C G47C
0.718

Now try G19A U46A .
0.155

Proceed to U20G C24A
0.128

Same lookup for U20A G47U , please.
0.179

For C12A G25U then?
0.1

Also need G68A U69C , thanks.
1.05

Next variant: A10C U21G
0.535
